system: HCT-116 colon; assay: NCI-60 one-dose screen, 48 h; details: 10 µM
The panel holds about 83,000 compounds, 20% with a hit somewhere; the sample as a whole holds those more often. Active and inactive are the calls of the source. Rule for the calls: active = growth percent below 10; inactive = the rest.
Returns: one label drawn from Y (active), N (inactive)

// known answers, use as guide
Compound	Category label
O=[N+]([O-])c1ccc(N=Nc2ccccc2)cc1	N
O=C(/C=C/C(=O)c1ccccc1)c1ccccc1	N
O=C(Cc1nc2ccc([N+](=O)[O-])cc2nc1CC(=O)c1ccccc1)c1ccccc1	N

INPUT: Field: outcome | Entry: COc1ccc(NC(=O)CCl)cc1
OUTPUT: N

INPUT: Then O=c1cc2oc3cc(O)c(O)cc3c(-c3ccccc3O)c-2cc1O ?
OUTPUT: N

INPUT: Then CC(=O)Cc1ccc(-c2ccccc2)cc1 ?
OUTPUT: N

====

test system: SF-295 CNS; experiment: NCI-60 one-dose screen, 48 h (100 = growth as untreated, 0 = no growth, -100 = all killed); settings: 10 µM
The panel holds about 83,000 compounds, 20% with a hit somewhere; the sample as a whole holds those more often.
Measured parameter: growth (%)
Report the value in % with no unit label.

Compound	Quantitative result
OCc1ccc(-c2ccc(-c3ccc(CO)s3)o2)s1	13.6
O=C(OCC(O)C1OC(c2ccccc2)OC(COC(=O)c2ccccc2)C1O)c1ccccc1 (centres undefined)	77.3
CC(O)COc1ccc(-c2ccccc2)cc1 (centres undefined)	107

INPUT: Quick check: growth of O=C(O)COCC(=O)O ?
OUTPUT: 89.7

INPUT: Then COC(=O)c1cccc(Br)c1 ?
OUTPUT: 102

INPUT: Then COc1ccc(/C(C#N)=C2C=C/C(=N/O)c3ccccc3\2)cc1 ?
OUTPUT: -38.6

INPUT: Then Cc1cc(N)ccc1-c1ccc(N)cc1C ?
OUTPUT: 99.2

INPUT: Then COc1ccc(-c2cc(-c3cc(-c4ccc(OC)cc4)nc(N)n3)nc(N)n2)cc1 ?
OUTPUT: 96.2

INPUT: Then Cc1cc(C)c(CC(=O)O)c(C)c1 ?
OUTPUT: 102

====

tested on: PC-3 prostate; assay: NCI-60 one-dose screen, 48 h (100 = growth as untreated, 0 = no growth, -100 = all killed); conditions: 10 µM
About 83,000 compounds went through this panel and 20% of them were active in at least one assay; those are over-represented in the sample as a whole.
Measured growth, listed per entry.
Report the value in % with no unit label.

# example entries with known answers
Compound	growth [%]
CCOC(=O)/C(=C/c1ccc(OC)cc1)N(CC)CC	95.4
COC(=O)C(O)c1ccccc1 (stereo not drawn)	94.6
Cc1cc(O)ccc1O	97.7

INPUT: Enter reported growth observed with PC-3 prostate for Cc1cc(C(C)(C)C)cc(C)c1Br
OUTPUT: 75.3

INPUT: Then CCCCC(CC)COC(C)=O (stereo not drawn) ?
OUTPUT: 97

INPUT: Then COc1ccccc1C1OC2=Nc3cc(C)c(C)cc3NC2C1=O (stereo not drawn) ?
OUTPUT: 82.5

INPUT: Then CC(C)COC(=O)COC(=O)OCCOCCOC(=O)OCC(=O)OCC(C)C ?
OUTPUT: 94.8

INPUT: Then COCCOC(=O)c1ccc(C(C)C)cc1 ?
OUTPUT: 82.9

INPUT: Then COc1cc([C@@H]2c3cc4c(cc3[C@H](O)[C@H]3COC(=O)[C@H]23)OCO4)cc(OC)c1OC ?
OUTPUT: 23.3

INPUT: Then CC(C)(O)C#CC#CC(C)(C)O ?
OUTPUT: 99.3

INPUT: Then c1ccc(Cc2ccccc2)cc1 ?
OUTPUT: 82.8

INPUT: Then CC1(C)N=C(N)N=C(N)N1c1ccc(Cl)cc1 ?
OUTPUT: 33.1

INPUT: Then Cc1c(O)cccc1O ?
OUTPUT: 96.9

INPUT: Then O=C(CS)Nc1ccc2ccccc2c1 ?
OUTPUT: 70

INPUT: Then CCCCOC(OCCCC)c1ccccc1 ?
OUTPUT: 98.7

INPUT: Then O=C(O)CCC(NC(=O)OCc1ccccc1)C(=O)O (stereo not drawn) ?
OUTPUT: 97

INPUT: Then CCCCCCCCCCCCCCCCC1CC(=O)OC1=O (stereo not drawn) ?
OUTPUT: 98.9

INPUT: Then Cn1cnc2nc(Cl)nc(Cl)c21 ?
OUTPUT: 25.1
